A collection of binders and their measured kon
target: T1, mfNPR1-mFc:hANP complex (monkey; human, UniProt P01160 124-151); test: SPR, mAb captured, 25C
T1 construct: also called monkey NPR1 complexed to ANP
State the result as a value with its unit after it.

binder="mAb22809 (antibody, human IgG4, V domains shown) VH: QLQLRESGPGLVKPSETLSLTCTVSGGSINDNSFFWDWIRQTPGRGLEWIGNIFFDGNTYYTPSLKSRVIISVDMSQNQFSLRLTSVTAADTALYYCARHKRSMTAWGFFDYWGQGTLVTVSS VL: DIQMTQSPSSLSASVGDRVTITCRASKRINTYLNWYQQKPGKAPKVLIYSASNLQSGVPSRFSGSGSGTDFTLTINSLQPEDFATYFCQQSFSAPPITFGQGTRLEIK" measured_value="44700 M⁻¹ s⁻¹"

We now examine a further binder.
Challenge: Check the records and state kon for mAb25491 (antibody, human IgG4, V domains shown) VH: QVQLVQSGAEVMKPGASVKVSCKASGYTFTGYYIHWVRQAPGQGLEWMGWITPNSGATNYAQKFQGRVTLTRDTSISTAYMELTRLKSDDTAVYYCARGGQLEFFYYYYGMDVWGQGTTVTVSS VL: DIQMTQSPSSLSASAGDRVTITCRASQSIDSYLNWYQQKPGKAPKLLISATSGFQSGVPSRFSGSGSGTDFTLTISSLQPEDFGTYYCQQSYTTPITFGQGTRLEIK
Response given: 60100 M⁻¹ s⁻¹
